Data provenance is paper PMC6749364.

PROTOCOL_TEXT: Tissue distribution study after intravenous administration
Assay type: in vivo, Sprague-Dawley rats
CONDITIONS: Sprague-Dawley, rat, iv; Heart, 4 h, rats, i.v. 5 mg/kg, n = 5
MEASUREMENT_TYPE: Kp at 4 h

[[record]]
smiles_entry = "O=C(/C=C/C=C/c1ccccc1)CCc1ccccc1"
endpoint_result = 1.78


====

PROTOCOL_TEXT: Tissue distribution study after intravenous administration
Type: in vivo, Sprague-Dawley rats
CONDITIONS: Sprague-Dawley, rat, iv; Liver, 2 h, rats, i.v. 5 mg/kg, n = 5
MEASUREMENT_TYPE: Kp at 2 h

[[record]]
smiles_entry = "O=C(/C=C/C=C/c1ccccc1)CCc1ccccc1"
endpoint_result = 1.28

